Values compiled from the NIST ThermoML archive (doi:10.1016/j.jct.2007.04.002).

assay: excess molar enthalpy (molar enthalpy of mixing); xn = mol fraction of the nth substance listed; conditions: 298.15 K; 101 kPa; Liquid; Calvet calorimetry; x1 = 0.3
property-measured: excess molar enthalpy (kcal/mol)
All answers are understood in kcal/mol, so give the number only.

Lab note: FC(F)(F)C(F)(F)C(F)(F)C(F)(F)C(F)(F)C(F)(F)F [perfluorohexane] + CCCCCC gave excess molar enthalpy of 0.45

Lab note: FC(F)(F)C(F)(F)C(F)(F)C(F)(F)C(F)(F)C(F)(F)F [perfluorohexane] + C1CCCCC1 gave excess molar enthalpy of 0.498

Lab note: FC(F)(F)C(F)(F)C(F)(F)C(F)(F)C(F)(F)C(F)(F)F [perfluorohexane] + CCCCCCCC gave excess molar enthalpy of 0.428

Lab note: FC(F)(F)C(F)(F)C(F)(F)C(F)(F)C(F)(F)C(F)(F)C(F)(F)C(F)(F)F [octadecafluorooctane] + CCCCCC gave excess molar enthalpy of 0.455

Lab note: FC(F)(F)C(F)(F)C(F)(F)C(F)(F)C(F)(F)C(F)(F)C(F)(F)F [hexadecafluoroheptane] + CCCCCC gave excess molar enthalpy of 0.456

Next item in the queue.
Lab note: FC(F)(F)C(F)(F)C(F)(F)C(F)(F)C(F)(F)C(F)(F)F [perfluorohexane] + CCCCCCC gave excess molar enthalpy of 0.463

---

excess molar enthalpy: recorded values
assay: excess molar enthalpy (molar enthalpy of mixing); xn = mol fraction of the nth substance listed; conditions: 298.15 K; 101 kPa; Liquid; Calvet calorimetry; x1 = 0.15
All answers are understood in kJ/mol, so give the number only.

Lab note: FC(F)(F)C(F)(F)C(F)(F)C(F)(F)C(F)(F)C(F)(F)C(F)(F)F [hexadecafluoroheptane] + CCCCCC gave excess molar enthalpy of 1.4

New cases:
Lab note: FC(F)(F)C(F)(F)C(F)(F)C(F)(F)C(F)(F)C(F)(F)F [perfluorohexane] + CCCCCC gave excess molar enthalpy of 1.31

Lab note: FC(F)(F)C(F)(F)C(F)(F)C(F)(F)C(F)(F)C(F)(F)F [perfluorohexane] + CCCCCCC gave excess molar enthalpy of 1.34

Lab note: FC(F)(F)C(F)(F)C(F)(F)C(F)(F)C(F)(F)C(F)(F)F [perfluorohexane] + CCCCCCCC gave excess molar enthalpy of 1.32

Lab note: FC(F)(F)C(F)(F)C(F)(F)C(F)(F)C(F)(F)C(F)(F)F [perfluorohexane] + C1CCCCC1 gave excess molar enthalpy of 1.61

Lab note: FC(F)(F)C(F)(F)C(F)(F)C(F)(F)C(F)(F)C(F)(F)C(F)(F)C(F)(F)F [octadecafluorooctane] + CCCCCC gave excess molar enthalpy of 1.58

---

excess molar enthalpy: recorded values
experiment: excess molar enthalpy (molar enthalpy of mixing); xn = mol fraction of the nth substance listed; conditions: 298.15 K; 101 kPa; Liquid; Calvet calorimetry; x1 = 0.55
All answers are understood in kcal/mol, so give the number only.

As a guide, the following entries are already answered.
Lab note: FC(F)(F)C(F)(F)C(F)(F)C(F)(F)C(F)(F)C(F)(F)F [perfluorohexane] + C1CCCCC1 gave excess molar enthalpy of 0.528

Lab note: FC(F)(F)C(F)(F)C(F)(F)C(F)(F)C(F)(F)C(F)(F)F [perfluorohexane] + CCCCCCC gave excess molar enthalpy of 0.513

Lab note: FC(F)(F)C(F)(F)C(F)(F)C(F)(F)C(F)(F)C(F)(F)C(F)(F)F [hexadecafluoroheptane] + CCCCCC gave excess molar enthalpy of 0.495

New cases:
Lab note: FC(F)(F)C(F)(F)C(F)(F)C(F)(F)C(F)(F)C(F)(F)C(F)(F)C(F)(F)F [octadecafluorooctane] + CCCCCC gave excess molar enthalpy of 0.43

Lab note: FC(F)(F)C(F)(F)C(F)(F)C(F)(F)C(F)(F)C(F)(F)F [perfluorohexane] + CCCCCCCC gave excess molar enthalpy of 0.457

Lab note: FC(F)(F)C(F)(F)C(F)(F)C(F)(F)C(F)(F)C(F)(F)F [perfluorohexane] + CCCCCC gave excess molar enthalpy of 0.5
